assay: Chemical stability assessed as half life in hydrochloric acid buffer at pH 1.3; type: physicochemical
Experimental endpoint: half-life (h)
Answer format: numeric, h implied, no suffix.

Here are 2 compounds together with their reported answers.
COC(=O)CN1C(=O)[C@H](Cc2ccc(OC(C)=O)c(OC(C)=O)c2)NC1(C)C 71.2
CCC1(CC)N[C@@H](Cc2ccc(O)c(O)c2)C(=O)N1CC(=O)OC 64.3

Could you tell me which half-life is on file for `COC(=O)CN1C(=O)[C@H](Cc2ccc(O)c(O)c2)NC1(C)C` ?
189

###

assay: Aqueous solubility after 15 mins by shake flask method; type: physicochemical; conditions: water
Measured solubility thermodynamic at 0.25 h, listed per entry for reference.
Report the figure in µg/mL without appending any unit label.

COC(=O)CN1C(=O)[C@H](Cc2ccc(O)c(O)c2)NC1(C)C 3990

Fill in the blank: the reported solubility thermodynamic at 0.25 h of `N[C@@H](Cc1ccc(O)c(O)c1)C(=O)O` is ____.
3600

Check `COC(=O)CN1C(=O)[C@H](Cc2ccc(OC(C)=O)c(OC(C)=O)c2)NC1(C)C` too.
26000

Continue with `CCC1(CC)N[C@@H](Cc2ccc(O)c(O)c2)C(=O)N1CC(=O)OC`
260

###

Listed here are compounds together with their documented logD.
assay: Octanol-water partition coefficient, log P at pH 7.4 by HPLC; type: physicochemical
# print the numeric value only

Guide cases for logD, answers given:
CCC1(CC)N[C@@H](Cc2ccc(O)c(O)c2)C(=O)N1CC(=O)OC 0.94
COC(=O)CN1C(=O)[C@H](Cc2ccc(O)c(O)c2)NC1(C)C 0.101

Could you now consider this next compound?
Any idea what logD was measured for `COC(=O)CN1C(=O)[C@H](Cc2ccc(OC(C)=O)c(OC(C)=O)c2)NC1(C)C` ?
0.042

###

assay: Chemical stability assessed as half life in phosphate buffer at pH 7.4; format: physicochemical
Each record here notes measured half-life.
Report only the number, with the unit h understood.

Suppose we examine the molecule `CCC1(CC)N[C@@H](Cc2ccc(O)c(O)c2)C(=O)N1CC(=O)OC` ; what half-life value has been reported?
4.75

Same lookup for `COC(=O)CN1C(=O)[C@H](Cc2ccc(OC(C)=O)c(OC(C)=O)c2)NC1(C)C` , please.
11.6

# iterate: `COC(=O)CN1C(=O)[C@H](Cc2ccc(O)c(O)c2)NC1(C)C`
4.2

All values here come from ChEMBL document CHEMBL1157590.
